- testSystem: FGFR4 (Homo sapiens (Human), UniProt P22455)
- Sequence (P22455 22-802): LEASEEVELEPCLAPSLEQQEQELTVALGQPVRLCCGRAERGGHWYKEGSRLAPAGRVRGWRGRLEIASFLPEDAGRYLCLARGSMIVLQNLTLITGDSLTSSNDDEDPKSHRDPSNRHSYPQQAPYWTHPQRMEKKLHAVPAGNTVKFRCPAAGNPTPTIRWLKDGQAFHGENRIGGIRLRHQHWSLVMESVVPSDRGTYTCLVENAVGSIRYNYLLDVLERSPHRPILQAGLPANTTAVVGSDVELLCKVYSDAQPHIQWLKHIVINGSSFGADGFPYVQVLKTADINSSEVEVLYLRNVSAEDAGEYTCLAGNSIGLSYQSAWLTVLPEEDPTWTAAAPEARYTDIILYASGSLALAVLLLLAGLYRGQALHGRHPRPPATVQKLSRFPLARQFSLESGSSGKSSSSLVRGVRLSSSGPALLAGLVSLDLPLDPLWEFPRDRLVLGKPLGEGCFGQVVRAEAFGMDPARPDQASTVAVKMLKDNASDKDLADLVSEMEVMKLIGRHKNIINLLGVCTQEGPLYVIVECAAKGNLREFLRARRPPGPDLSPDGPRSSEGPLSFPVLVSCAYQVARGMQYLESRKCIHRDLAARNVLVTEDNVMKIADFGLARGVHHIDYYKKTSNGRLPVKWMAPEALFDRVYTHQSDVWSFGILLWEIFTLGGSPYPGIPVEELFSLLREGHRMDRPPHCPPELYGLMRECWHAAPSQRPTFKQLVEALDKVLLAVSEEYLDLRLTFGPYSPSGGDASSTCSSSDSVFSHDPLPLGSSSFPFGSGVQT
- measurementDescription: FGFR Enzymatic Assay (FRET peptide phosphorylation), FGFR4
- Assay type: biochemical
- conditionSet: pre-incubated for 4 hours

compound: CCN1C(=O)N(c2c(F)c(OC)cc(OC)c2F)Cc2cnc(-c3ccc(C(=O)NCCO)nc3)cc21 [Example 177]
IC50: 10 to 30 nM

compound: COc1cc(OC)c(F)c(N2Cc3cnc(-c4cn(C)nc4C)cc3N(c3ccc4ncsc4c3)C2=O)c1F [Example 41]
IC50: 30 to 200 nM

compound: CCN1C(=O)N(c2c(F)c(OC)cc(OC)c2F)Cc2cnc(-c3ccc(C4(C#N)CC4)cc3)cc21 [Example 183]
IC50: 30 to 200 nM

compound: COc1cc(OC)c(F)c(N2Cc3cnc(-c4cn(C)nc4C)cc3N(c3ccncn3)C2=O)c1F [Example 45]
IC50: 30 to 200 nM

compound: COc1ccc(N2C(=O)N(c3c(F)c(OC)cc(OC)c3F)Cc3cnc(-c4cn(C)nc4C)cc32)cc1 [Example 104]
IC50: 30 to 200 nM

compound: COC(=O)Nc1ccc(N2C(=O)N(c3c(F)c(OC)cc(OC)c3F)Cc3cnc(-c4cn(C)nc4C)cc32)cc1 [Example 123]
IC50: 10 to 30 nM

---

Reported FGFR1/FGFR3 IC50 ratio by item:
- testSystem: FGFR3 enzyme (Homo sapiens (Human))
- measurementDescription: FGFR Enzymatic Assay (FRET peptide phosphorylation), FGFR3
- Format: biochemical
- conditionSet: FGFR3 selectivity; pre-incubated for 4 hours

compound: COc1cc(OC)c(F)c(N2Cc3cnc(-c4cnn(CCN5CCOCC5)c4)cc3C3(CC3)C2=O)c1F [Example 157]
FGFR1/FGFR3 IC50 ratio: >5
--
compound: COc1cc(OC)c(F)c(N2Cc3cnc(-c4cn(CCC5CCNCC5)nc4C)cc3C3(CC3)C2=O)c1F [Example 165]
FGFR1/FGFR3 IC50 ratio: >3
--
compound: CCN1C(=O)N(c2c(F)c(OC)cc(OC)c2F)Cc2cnc(-c3ccc(C(=O)NCCO)nc3)cc21 [Example 177]
FGFR1/FGFR3 IC50 ratio: >5
--
compound: COc1cnc(N2C(=O)N(c3c(F)c(OC)cc(OC)c3F)Cc3cnc(-c4cn(C)nc4C)cc32)cn1 [Example 112]
FGFR1/FGFR3 IC50 ratio: >3
--
compound: COc1cc(OC)c(F)c(N2Cc3cnc(-c4cncc(C#N)c4)cc3C3(CC3)C2=O)c1F [Example 8]
FGFR1/FGFR3 IC50 ratio: >5
--
compound: COc1cc(OC)c(F)c(N2Cc3cnc(-c4cncc(C(=O)N5CCOCC5)c4)cc3C3(CC3)C2=O)c1F [Example 13]
FGFR1/FGFR3 IC50 ratio: >3
--
compound: COc1cc(OC)c(F)c(N2Cc3cnc(-c4cn(C)nc4C)cc3N(Cc3cnn(C4CC4)c3)C2=O)c1F [Example 124]
FGFR1/FGFR3 IC50 ratio: >10

---

- testSystem: FGFR3 enzyme (Homo sapiens (Human), UniProt P22607)
- Sequence (P22607 23-806): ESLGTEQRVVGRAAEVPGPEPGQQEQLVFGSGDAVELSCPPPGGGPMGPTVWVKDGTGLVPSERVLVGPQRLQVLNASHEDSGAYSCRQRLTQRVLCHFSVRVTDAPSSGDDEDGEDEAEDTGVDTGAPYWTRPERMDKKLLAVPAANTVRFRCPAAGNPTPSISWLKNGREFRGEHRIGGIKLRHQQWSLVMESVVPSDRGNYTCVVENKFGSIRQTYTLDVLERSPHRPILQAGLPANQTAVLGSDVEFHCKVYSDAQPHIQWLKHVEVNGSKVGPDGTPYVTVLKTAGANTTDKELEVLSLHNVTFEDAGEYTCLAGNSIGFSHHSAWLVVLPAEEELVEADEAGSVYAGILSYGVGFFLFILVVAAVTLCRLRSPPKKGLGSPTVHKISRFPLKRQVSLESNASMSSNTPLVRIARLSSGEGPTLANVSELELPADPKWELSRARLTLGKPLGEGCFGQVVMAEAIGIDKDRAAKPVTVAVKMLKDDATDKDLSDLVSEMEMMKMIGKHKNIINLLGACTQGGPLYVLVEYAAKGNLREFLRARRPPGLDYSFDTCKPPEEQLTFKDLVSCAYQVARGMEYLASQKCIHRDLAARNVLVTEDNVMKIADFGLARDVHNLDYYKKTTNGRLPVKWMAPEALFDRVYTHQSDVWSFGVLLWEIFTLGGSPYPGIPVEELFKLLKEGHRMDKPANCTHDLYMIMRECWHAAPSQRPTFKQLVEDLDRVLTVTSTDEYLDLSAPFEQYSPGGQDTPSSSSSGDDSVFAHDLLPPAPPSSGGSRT
- measurementDescription: FGFR Enzymatic Assay (FRET peptide phosphorylation), FGFR3
- Type: biochemical
- conditionSet: FGFR3 selectivity; pre-incubated for 4 hours
Reported FGFR1/FGFR3 IC50 ratio by item:

compound: COc1cc(OC)c(F)c(N2Cc3cnc(-c4cn(C)nc4C)cc3N(c3ccc4nc(C)oc4c3)C2=O)c1F [Example 75]
FGFR1/FGFR3 IC50 ratio: >5
//
compound: COc1cc(OC)c(F)c(N2Cc3cnc(-c4cncc(N)c4)cc3C3(CC3)C2=O)c1F [Example 4]
FGFR1/FGFR3 IC50 ratio: >1
//
compound: COc1cc(OC)c(F)c(N2Cc3cnc(-c4cn(C)nc4C)cc3N(C3CCN(C(C)=O)CC3)C2=O)c1F [Example 43]
FGFR1/FGFR3 IC50 ratio: >10
//
compound: COc1cc(OC)c(F)c(N2Cc3cnc(-c4cncc(N5CCOCC5)c4)cc3C3(CC3)C2=O)c1F [Example 6]
FGFR1/FGFR3 IC50 ratio: >3
//
compound: CCN1C(=O)N(c2c(F)c(OC)cc(OC)c2F)Cc2cnc(-c3ccc(C(N)=O)nc3)cc21 [Example 184]
FGFR1/FGFR3 IC50 ratio: >5
//
compound: COc1cc(OC)c(F)c(N2Cc3cnc(-c4cn(CCC#N)nc4C)cc3C3(CC3)C2=O)c1F [Example 156]
FGFR1/FGFR3 IC50 ratio: >5
//
compound: COc1cc(OC)c(F)c(N2Cc3cnc(-c4cn(C)nc4C)cc3N(c3cccc(F)c3)C2=O)c1F [Example 99]
FGFR1/FGFR3 IC50 ratio: >5
//
compound: COc1cncc(-c2cc3c(cn2)CN(c2c(F)c(OC)cc(OC)c2F)C(=O)C32CC2)c1 [Example 10]
FGFR1/FGFR3 IC50 ratio: >1
//
compound: COc1cc(OC)c(F)c(N2Cc3cnc(-c4cc(N)cnc4C)cc3C3(CC3)C2=O)c1F [Example 7]
FGFR1/FGFR3 IC50 ratio: >1
//
compound: COc1cc(OC)c(F)c(N2Cc3cnc(-c4cn(C)nc4C)cc3N(C3CCCC3)C2=O)c1F [Example 32]
FGFR1/FGFR3 IC50 ratio: >1
//
compound: COc1cc(OC)c(F)c(N2Cc3cnc(-c4cn(C)nc4C)cc3N(c3cnc(C)cn3)C2=O)c1F [Example 107]
FGFR1/FGFR3 IC50 ratio: >3
//
compound: COc1cc(OC)c(F)c(N2Cc3cnc(-c4ccc(C5(C#N)CCC5)nc4)cc3N(c3cnn(C)c3)C2=O)c1F [Example 188]
FGFR1/FGFR3 IC50 ratio: >5
//
compound: COC(=O)Nc1ccc(N2C(=O)N(c3c(F)c(OC)cc(OC)c3F)Cc3cnc(-c4cn(C)nc4C)cc32)cc1 [Example 123]
FGFR1/FGFR3 IC50 ratio: >5
//
compound: COc1cc(OC)c(F)c(N2Cc3cnc(-c4ccc(C5(C#N)CCC5)nc4)cc3N(Cc3nnc(C)o3)C2=O)c1F [Example 187]
FGFR1/FGFR3 IC50 ratio: >10
//
compound: COc1cc(OC)c(F)c(N2Cc3cnc(-c4cn(C)nc4C)cc3N(c3cc(F)cc(C#N)c3)C2=O)c1F [Example 78]
FGFR1/FGFR3 IC50 ratio: >5

src = patent US9708318B2
